Test: Solubility of the compound at pH 7.4
Format: physicochemical
Conditions: buffer
readout.type: solubility

INSERT INTO results (molecule_smiles, result) VALUES
  ('COCc1nnc(N2CC(Oc3ccc(F)cc3Cl)C2)n1-c1ccc(OC)nc1', '59 µg/mL');

----------
Target: Vasopressin V1b receptor (Homo sapiens)
Sequence (P47901 whole entry): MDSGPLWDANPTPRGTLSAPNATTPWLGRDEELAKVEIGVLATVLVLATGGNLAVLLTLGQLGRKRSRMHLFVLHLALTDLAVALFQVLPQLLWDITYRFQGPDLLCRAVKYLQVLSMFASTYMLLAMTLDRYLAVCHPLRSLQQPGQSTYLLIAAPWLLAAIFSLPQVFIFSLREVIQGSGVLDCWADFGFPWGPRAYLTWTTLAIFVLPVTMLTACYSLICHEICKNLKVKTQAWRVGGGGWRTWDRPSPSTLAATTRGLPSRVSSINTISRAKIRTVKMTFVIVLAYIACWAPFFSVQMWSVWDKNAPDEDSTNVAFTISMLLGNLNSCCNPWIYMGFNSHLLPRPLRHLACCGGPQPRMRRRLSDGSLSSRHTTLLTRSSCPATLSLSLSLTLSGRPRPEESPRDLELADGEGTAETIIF
Assay: Displacement of [3H]vasopressin from human vasopressin V1b receptor expressed in CHO cells
Assay type: cell-based
Catalogue of Ki readings, one per entry.
readout.type: Ki

INSERT INTO results (molecule_smiles, result) VALUES
  ('CN(C)CCCNC(=O)CCc1ccc(S(=O)(=O)N(CC(=O)N/N=C2\C(=O)Nc3ccccc32)c2ccc(Cl)cc2)cc1', '0.377 µM'),
  ('CCOCc1nnc(-c2ccc(OCC)c(C)c2)n1-c1ccc(OC)nc1', '> 10 µM'),
  ('COc1ccc(-n2c(C)nnc2-c2ccc(-c3ccccc3OC)cc2)cn1', '> 10 µM'),
  ('COCc1nnc(N2CC(Oc3ccc(F)cc3Cl)C2)n1-c1ccc(OC)nc1', '> 10 µM'),
  ('CCOc1ccc(S(=O)(=O)N(CC(=O)NN=C2C(=O)Nc3ccccc32)c2ccc(C)cc2)cc1', '2.5 µM'),
  ('COc1ccc(-n2c(C)nnc2-c2cnc(-c3ccc(F)cc3C)cn2)cn1', '> 10 µM');

The reported measurements were obtained from ChEMBL document CHEMBL1250454.
